Measured Ave % Injury 14DAT, listed per entry for reference.
test system: transformed-control line containing PAT and Cry1F; experiment: Foliar-applied auxinic herbicides on control (PAT/Cry1F, wildtype) Arabidopsis, % injury 14 DAT; assay type: in vivo, Arabidopsis thaliana; settings: 200 g ae/ha foliar; PatCry1f - Control

{"columns": ["Compound", "Unit Of Measure", "Ave % Injury 14DAT"],
 "data": [
  ["O=C(O)COc1nc(Cl)c(Cl)cc1Cl", "%", 65],
  ["Cc1cc(Cl)ccc1OC(C)C(=O)O (racemic) [(R,S)-mecoprop]", "%", 62],
  ["C[C@@H](Oc1ccc(Cl)cc1Cl)C(=O)O", "%", 73],
  ["Nc1c(Cl)c(F)nc(OCC(=O)O)c1Cl", "%", 85],
  ["Oc1ccc(Cl)cc1Cl", "%", 0],
  ["CNC.O=C(O)COc1ccc(Cl)cc1Cl", "%", 100]
]}

----------
system: T4 Arabidopsis homozygous for AAD1 (v3) (line AAD1.01.315.076); experiment: Foliar-applied auxinic herbicides on homozygous T4 AAD1 (v3) Arabidopsis, % injury 14 DAT; format: in vivo, Arabidopsis thaliana; conditions: 3200 g ae/ha foliar; AAD1.01.315.076.T4 homozygous AAD1 plants

{"columns": ["Molecule Smiles", "Ave % Injury 14DAT / %"],
 "data": [
  ["C[C@@H](Oc1ccc(Cl)cc1Cl)C(=O)O", 3],
  ["Nc1c(Cl)c(F)nc(OCC(=O)O)c1Cl", 95],
  ["Oc1ccc(Cl)cc1Cl", 0],
  ["O=C(O)COc1nc(Cl)c(Cl)cc1Cl", 97]
]}

----------
Measured PAAD1.315.064 ARBTH root 150, listed per entry for reference.
tested on: PAAD1.315.064 ARBTH; assay: In vitro plate test of herbicide cross resistance: homozygous T4 AAD1 (v3) Arabidopsis; type: in vivo, Arabidopsis thaliana; settings: root, 7 days

{"columns": ["Compound", "Unit Of Measure", "Relation Sign", "PAAD1.315.064 ARBTH root 150"],
 "data": [
  ["Nc1c(Cl)c(F)nc(OCC(=O)O)c1Cl", "ppm", "=", 0.2],
  ["O=C(O)COc1nc(Cl)c(Cl)cc1Cl", "ppm", "=", 0.02],
  ["Nc1c(Cl)c(Cl)nc(C(=O)O)c1Cl", "ppm", "=", 0.15],
  ["O=C(O)COc1cc(Cl)c(Cl)cc1Cl", "ppm", "<", 0.01],
  ["O=C(O)COc1ccc(Cl)cc1Cl", "ppm", "=", 0.04],
  ["CC(Oc1ccc(Cl)cc1Cl)C(=O)O (racemic) [(R,S)-dichlorprop, 2,4-dichlorophenoxypropionic acid]", "ppm", "=", 1.5],
  ["Cc1cc(Cl)ccc1OCC(=O)O", "ppm", "=", 0.03],
  ["Cc1cc(Cl)ccc1OC(C)C(=O)O (racemic) [(R,S)-mecoprop]", "ppm", "=", 1.5]
]}

----------
tested on: T4 Arabidopsis homozygous for AAD1 (v3) (line AAD1.01.315.076); assay: Foliar-applied auxinic herbicides on homozygous T4 AAD1 (v3) Arabidopsis, % injury 14 DAT; format: in vivo, Arabidopsis thaliana; conditions: 200 g ae/ha foliar; AAD1.01.315.076.T4 homozygous AAD1 plants

{"columns": ["Compound", "Ave % Injury 14DAT / %"],
 "data": [
  ["C[C@@H](Oc1ccc(Cl)cc1Cl)C(=O)O", 3],
  ["Cc1cc(Cl)ccc1OC(C)C(=O)O (racemic) [(R,S)-mecoprop]", 3],
  ["Oc1ccc(Cl)cc1Cl", 0],
  ["Nc1c(Cl)c(F)nc(OCC(=O)O)c1Cl", 75],
  ["O=C(O)COc1nc(Cl)c(Cl)cc1Cl", 58],
  ["CNC.O=C(O)COc1ccc(Cl)cc1Cl", 0]
]}

----------
test system: Arabidopsis thaliana var. Columbia; test: Arabidopsis plate test bioassay for herbicide degradation; assay type: in vivo; conditions: Escherichia coli, in Arabidopsis thaliana, 168 h, read-out: GR50, Chemical + Blank Vector
Readout Kind: IC50 (µM)

{"columns": ["Molecule", "Readout Kind", "Unit Of Measure", "Value Reported"],
 "data": [
  ["O=C(O)COc1ccc(Cl)cc1Cl [2,4-D, 2,4-dichlorophenoxyacetic acid]", "IC50", "µM", 0.017]
]}

----------
Measured IC50, listed per entry for reference.
tested on: Arabidopsis thaliana var. Columbia; assay: Arabidopsis plate test bioassay for herbicide degradation; assay type: in vivo; conditions: Arabidopsis thaliana, 168 h; AAD1 (v1)-expressing lysate; nominal concentration; read-out: GR50, Chemical + AAD1 v1

{"columns": ["Compound", "Measured On", "IC50 / nM"],
 "data": [
  ["O=C(O)COc1nc(Cl)c(Cl)cc1Cl", "Arabidopsis thaliana var. Columbia", 1000],
  ["CC(Oc1ccc(Cl)cc1Cl)C(=O)O (racemic) [(R,S)-dichlorprop, 2,4-dichlorophenoxypropionic acid]", "Arabidopsis thaliana var. Columbia", 1000]
]}

----------
molecular target: AAD1 (v1) (Sphingobium herbicidovorans); construct: made in house; host or cells: E. coli BL-21 Star (DE3), plasmid pDAB3203; assay: Colorimetric phenol detection assay of AAD1 (v1) activity (purified enzyme or E. coli extract); type: biochemical; conditions: Table 3; substrate 1 mM; 1 μg purified AAD1 (v1) per 0.16 ml assay; 15 min
Readout Kind: A510, AAD1

{"columns": ["Compound", "Value Reported"],
 "data": [
  ["O=C(O)CCCOc1ccc(Cl)cc1Cl [compound 178577]", 0.003],
  ["CC(Oc1ccc(Cl)cc1Cl)C(=O)O (racemic) [(R,S)-dichlorprop, 2,4-dichlorophenoxypropionic acid]", 0.566],
  ["CC(Oc1ccc(F)cc1Cl)C(=O)O (racemic)", 0.304],
  ["O=C(O)COc1ccc(Cl)cc1Cl [2,4-D, 2,4-dichlorophenoxyacetic acid]", 0.034],
  ["CC(Oc1ccc(Cl)c(N)c1Cl)C(=O)O (racemic) [(R,S)-3-aminodichlorpop]", 0.228],
  ["Cc1cc(Cl)ccc1OC(C)C(=O)O (racemic) [(R,S)-mecoprop]", 0.341],
  ["CC(C)COC(=O)COc1ccc(Cl)cc1Cl [compound 190252]", 0.008],
  ["Nc1c(Cl)ccc(OCC(=O)O)c1Cl [compound 11263526]", 0.004],
  ["CCC(Oc1ccc(Cl)cc1Cl)C(N)=O (centres unmarked) [compound 192132]", 0.064],
  ["O=S(=O)([O-])OCCOc1ccc(Cl)cc1Cl.[Na+] [sesone]", 0.02],
  ["O=C(O)COc1ccc(F)cc1Cl [compound 124988]", 0.007]
]}

----------
Measured A510, AAD1, listed per entry for reference.
molecular target: AAD1 (v1) (Sphingobium herbicidovorans, UniProt Q8KSC8); construct: made in house; host or cells: E. coli BL-21 Star (DE3), plasmid pDAB3203; assay: Colorimetric phenol detection assay of AAD1 (v1) activity (purified enzyme or E. coli extract); format: biochemical; settings: substrate 0.5 mM, 15 min, 25 mM MOPS pH 6.8; 4 μl AAD1 (32 μg protein) extract
Sequence (Q8KSC8 whole entry): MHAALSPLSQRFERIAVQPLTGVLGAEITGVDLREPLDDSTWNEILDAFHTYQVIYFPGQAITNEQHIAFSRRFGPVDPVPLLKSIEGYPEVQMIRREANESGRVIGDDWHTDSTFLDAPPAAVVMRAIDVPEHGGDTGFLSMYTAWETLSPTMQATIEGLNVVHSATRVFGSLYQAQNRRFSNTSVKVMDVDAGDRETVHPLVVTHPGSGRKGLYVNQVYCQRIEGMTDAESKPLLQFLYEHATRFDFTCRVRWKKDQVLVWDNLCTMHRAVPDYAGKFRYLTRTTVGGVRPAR
Readout Kind: A510, AAD1

{"columns": ["Compound", "Measured On", "Value Reported"],
 "data": [
  ["CC(Oc1ccc(Oc2ncc(C(F)(F)F)cc2Cl)cc1)C(=O)O (centres unmarked) [compound 8671]", "AAD1 (v1) (Sphingobium herbicidovorans, UniProt Q8KSC8)", 0.12],
  ["O=C(O)COc1ccc(Oc2ncc(C(F)(F)F)cc2Cl)cc1 [haloxyfop- oxyacetate]", "AAD1 (v1) (Sphingobium herbicidovorans, UniProt Q8KSC8)", 0],
  ["C[C@H](Oc1ccc(Oc2ccc(C#N)cc2F)cc1)C(=O)O [(S)- cyhalofop]", "AAD1 (v1) (Sphingobium herbicidovorans, UniProt Q8KSC8)", 0],
  ["CC(Oc1ccc(Oc2ncc(C(F)(F)F)cc2Cl)cc1)C(=O)O (racemic) [haloxyfop]", "AAD1 (v1) (Sphingobium herbicidovorans, UniProt Q8KSC8)", 0.1],
  ["C[C@@H](Oc1ccc(Oc2nc3ccc(Cl)cc3o2)cc1)C(=O)O [(R)- fenoxaprop]", "AAD1 (v1) (Sphingobium herbicidovorans, UniProt Q8KSC8)", 0.14],
  ["C[C@@H](Oc1ccc(Oc2cnc3cc(Cl)ccc3n2)cc1)C(=O)O [(R)- quizalofop]", "AAD1 (v1) (Sphingobium herbicidovorans, UniProt Q8KSC8)", 0.27],
  ["CC(Oc1ccc(Oc2ccc(C#N)cc2F)cc1)C(=O)O (racemic) [(R,S)- cyhalofop]", "AAD1 (v1) (Sphingobium herbicidovorans, UniProt Q8KSC8)", 0.12],
  ["C[C@@H](Oc1ccc(Oc2ccc(C#N)cc2F)cc1)C(=O)O [(R)- cyhalofop]", "AAD1 (v1) (Sphingobium herbicidovorans, UniProt Q8KSC8)", 0.14]
]}

Where do the numbers come from? From patent US10450549B2.
